# Tested on: TMD5
# assay-comment: selective drug sensitivity score (sDSS, relative to normal bone marrow) (sDSS (score)); higher = more potent and effective on the cell line relative to normal bone marrow cells;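 further: ALL cell lines in 384-well plates, five doses spanning 10,000-fold, each plate scaled between vehicle and 100 µmol/L benzalkonium chloride controls, sDSS an adapted area-under-curve metric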
# study-conditions: 72 h
selective drug sensitivity score of 0 or higher: True. Under 0: False.

molecule	group
CCn1c(-c2nonc2N)nc2cnc(Oc3cccc(NC(=O)c4ccc(OCCN5CCOCC5)cc4)c3)cc21 (top concentration 10000 nM)	True
COc1cc2c(Oc3ccc(NC(=O)C4(C(=O)Nc5ccc(F)cc5)CC4)cc3F)ccnc2cc1OCCCN1CCOCC1 [Foretinib] (top concentration 1000 nM)	True
COc1cccc2c1C(=O)c1c(O)c3c(c(O)c1C2=O)C[C@@](O)(C(C)=O)C[C@@H]3O[C@H]1C[C@H](N)[C@H](O)[C@H](C)O1 [Daunorubicin] (top concentration 1000 nM)	True
CCCCc1nc2cc(/C=C/C(=O)NO)ccc2n1CCN(CC)CC [Pracinostat] (top concentration 10000 nM)	True
Cc1cc2c(C(C)C)c(O)c(O)c(C=O)c2c(O)c1-c1c(C)cc2c(C(C)C)c(O)c(O)c(C=O)c2c1O [AT-101] (top concentration 100000 nM)	True
Nc1ncn([C@@H]2O[C@H](CO)[C@@H](O)[C@H]2O)c(=O)n1 [Azacitidine] (top concentration 10000 nM)	False
CC1(C)CNc2cc(NC(=O)c3cccnc3NCc3ccncc3)ccc21 [Motesanib] (top concentration 10000 nM)	False
CCc1nc(C(N)=O)c(Nc2ccc(N3CCC(N4CCN(C)CC4)CC3)c(OC)c2)nc1NC1CCOCC1 [Gilteritinib] (top concentration 1000 nM)	False
CN1CCC(COc2cnc(-c3cccc(Cn4nc(-c5cccc(C#N)c5)ccc4=O)c3)nc2)CC1 [Tepotinib] (top concentration 1000 nM)	False
COc1cc2c(Oc3ccc4[nH]c(C)cc4c3F)ncnc2cc1OCCCN1CCCC1 [Cediranib] (top concentration 1000 nM)	True

---

# System: COG-LL-355h
# assay-comment: selective drug sensitivity score (sDSS, relative to normal bone marrow) (sDSS (score)); higher = more potent and effective on the cell line relative to normal bone marrow cells
# study-conditions: 72 h
measured-endpoint: selective drug sensitivity score

compound	target-or-system	value
Cc1cnc(NC(=O)Nc2cc(Br)c(C)cc2OC[C@@H]2CNCCO2)cn1 [Rabusertib] (top concentration 1000 nM)	COG-LL-355h	1.96
CC(C)(O)CC(=O)NCCn1ccc2ncnc(Nc3ccc(Oc4cccc(C(F)(F)F)c4)c(Cl)c3)c21 [TAK-285] (top concentration 2500 nM)	COG-LL-355h	0
Nc1ncnc2c1nc(Cl)n2[C@@H]1O[C@H](CO)[C@@H](O)[C@H]1O [8-chloro-adenosine] (top concentration 50000 nM)	COG-LL-355h	-3.6

---

# System: P12-ICHIKAWA
# assay-comment: selective drug sensitivity score (sDSS, relative to normal bone marrow) (sDSS (score)); higher = more potent and effective on the cell line relative to normal bone marrow cells
# study-conditions: 72 h
selective drug sensitivity score of -0.8 or higher: true (1). Under -0.8: false (0).

molecule	target-or-system	group
COc1cc2c(cc1OCCCN1CCCC1)N=C(N)C21CCC1 [A-366] (top concentration 25000 nM)	P12-ICHIKAWA	false (0)
Nc1nc(OCc2cc(Br)cs2)c2[nH]cnc2n1 [Lomeguatrib] (top concentration 10000 nM)	P12-ICHIKAWA	true (1)
CO[C@H]1C[C@@H]2CC[C@@H](C)[C@@](O)(O2)C(=O)C(=O)N2CCCC[C@H]2C(=O)O[C@H]([C@H](C)C[C@@H]2CC[C@@H](OC(=O)C(C)(CO)CO)[C@H](OC)C2)CC(=O)[C@H](C)/C=C(\C)[C@@H](O)[C@@H](OC)C(=O)[C@H](C)C[C@H](C)/C=C/C=C/C=C/1C [Temsirolimus] (top concentration 100 nM)	P12-ICHIKAWA	false (0)
NS(=O)(=O)OC[C@@H]1C[C@@H](n2ccc3c(N[C@H]4CCc5ccccc54)ncnc32)C[C@@H]1O [Pevonedistat] (top concentration 10000 nM)	P12-ICHIKAWA	true (1)
N#Cc1ccc(COC[C@H]2O[C@@H](n3c(NCc4ccc(Cl)c(Cl)c4)nc4c(N)ncnc43)[C@H](O)[C@@H]2O)cc1 (top concentration 10000 nM)	P12-ICHIKAWA	true (1)

---

# Tested on: RCH-ACV
# assay-comment: selective drug sensitivity score (sDSS, relative to normal bone marrow) (sDSS (score)); higher = more potent and effective on the cell line relative to normal bone marrow cells
# study-conditions: 72 h

compound	selective drug sensitivity score
O=C1CN2Cc3c(ccc(Cl)c3Cl)N=C2N1 [Anagrelide] (top concentration 10000 nM)	0
CC(C)C(=O)Nc1ccc([N+](=O)[O-])c(C(F)(F)F)c1 [Flutamide] (top concentration 10000 nM)	0.14
Cc1nc(Nc2ncc(C(=O)Nc3c(C)cccc3Cl)s2)cc(N2CCN(CCO)CC2)n1 [Dasatinib] (top concentration 1000 nM)	21.5
Nc1nc(OCc2cc(Br)cs2)c2[nH]cnc2n1 [Lomeguatrib] (top concentration 10000 nM)	0.8
O=C(c1cc(Cc2n[nH]c(=O)c3ccccc23)ccc1F)N1CCN(C(=O)C2CC2)CC1 [Olaparib] (top concentration 10000 nM)	7.38
Nc1nc(N)c2nc(-c3cccc(O)c3)c(-c3cccc(O)c3)nc2n1 [TG100-115] (top concentration 10000 nM)	5.6
CCN(CC)CCN(Cc1ccc(-c2ccc(C(F)(F)F)cc2)cc1)C(=O)Cn1c(SCc2ccc(F)cc2)nc(=O)c2c1CCC2 [Darapladib] (top concentration 1000 nM)	7.28

---

# Test system: NALM-16
# assay-comment: selective drug sensitivity score (sDSS, relative to normal bone marrow) (sDSS (score)); higher = more potent and effective on the cell line relative to normal bone marrow cells
# study-conditions: 72 h
measured-endpoint: selective drug sensitivity score

compound	value
Cc1cnc(NC(=O)Nc2cc(Br)c(C)cc2OC[C@@H]2CNCCO2)cn1 [Rabusertib] (top concentration 1000 nM)	-0.74
CN[C@@H](C)C(=O)N[C@H]1CN(C(=O)CC(C)C)CC[C@H]2CC[C@@H](C(=O)NC(c3ccccc3)c3ccccc3)N2C1=O [AT-406] (top concentration 10000 nM)	-1.26
CN1CCc2c(c3ccccc3n2Cc2ccc(C(=O)NO)cc2)C1 [Tubastatin_A] (top concentration 10000 nM)	-0.14
C=CCN(/C=C1/C(=O)O[C@H](COC)[C@@]2(C)C1=C(O)C(=O)C1=C2[C@H](OC(C)=O)C[C@]2(C)C(=O)CC[C@@H]12)CC=C [Sonolisib] (top concentration 10000 nM)	-0.56
CC(C)(C)C[C@@H]1N[C@@H](C(=O)N[C@H]2CC[C@H](O)CC2)[C@H](c2cccc(Cl)c2F)[C@]12C(=O)Nc1cc(Cl)ccc12 (top concentration 10000 nM)	-3.54
C/C=C1\NC(=O)[C@H]2CSSCC/C=C/[C@H](CC(=O)N[C@H](C(C)C)C(=O)N2)OC(=O)[C@H](C(C)C)NC1=O [Romidepsin] (top concentration 1000 nM)	0.76

---

Listed here: items and their measured selective drug sensitivity score.
# Test system: HAL-01
# assay-comment: selective drug sensitivity score (sDSS, relative to normal bone marrow) (sDSS (score)); higher = more potent and effective on the cell line relative to normal bone marrow cells
# study-conditions: 72 h

compound	selective drug sensitivity score
CC1(C)NC(=O)N(c2ccc([N+](=O)[O-])c(C(F)(F)F)c2)C1=O [Nilutamide] (top concentration 10000 nM)	2.82
C=CCc1cccc(/C=N/NC(=O)CN2CCN(Cc3ccccc3)CC2)c1O [PAC-1] (top concentration 10000 nM)	3.38
CNC(=O)c1nn(C)c2c1C(C)(C)Cc1cnc(Nc3ccc(N4CCN(C)CC4)cc3)nc1-2 [Milciclib] (top concentration 10000 nM)	5.94
CC1(C)OCCn2c1nc1c(N3CCOCC3)nc(-c3cnc(N)nc3)nc12 [GDC-0084] (top concentration 10000 nM)	11
C/C=C1\NC(=O)[C@H]2CSSCC/C=C/[C@H](CC(=O)N[C@H](C(C)C)C(=O)N2)OC(=O)[C@H](C(C)C)NC1=O [Romidepsin] (top concentration 1000 nM)	-17.5
O=C(Nc1cccc(Nc2ncc(Br)c(NCCc3cnc[nH]3)n2)c1)N1CCCC1 [BX-912] (top concentration 10000 nM)	-3.64
Cc1nc(Nc2ncc(C(=O)Nc3c(C)cccc3Cl)s2)cc(N2CCN(CCO)CC2)n1 [Dasatinib] (top concentration 1000 nM)	-2.8

---

# Test system: LC4-1
# assay-comment: selective drug sensitivity score (sDSS, relative to normal bone marrow) (sDSS (score)); higher = more potent and effective on the cell line relative to normal bone marrow cells
# study-conditions: 72 h
Listed here: items and their measured selective drug sensitivity score.

compound	target-or-system	selective drug sensitivity score
O=C(Nc1cc(Oc2cc(F)c(NC(=O)C3(C(=O)Nc4ccc(F)cc4)CC3)cc2F)ccn1)C1CC1 [Altiratinib] (top concentration 10000 nM)	LC4-1	-0.36
COc1cccc(OCCCN)c1-c1cc(Nc2cnc(C#N)cn2)n[nH]1 [Prexasertib] (top concentration 10000 nM)	LC4-1	19.6
C[C@@H]1C[C@H]2[C@@H]3CCC4=CC(=O)C=C[C@]4(C)[C@@]3(F)[C@@H](O)C[C@]2(C)[C@@]1(O)C(=O)CO [Dexamethasone] (top concentration 10000 nM)	LC4-1	12.5
Nc1cc(COc2c(Cl)cc(C[C@H](N)C(=O)O)cc2Cl)c2oc(-c3ccccc3)nc2c1 [JPH203] (top concentration 5000 nM)	LC4-1	0
Nc1ncn([C@H]2C[C@H](O)[C@@H](CO)O2)c(=O)n1 [Decitabine] (top concentration 10000 nM)	LC4-1	-0.06
Sc1ncnc2nc[nH]c12 [Mercaptopurine] (top concentration 10000 nM)	LC4-1	17.1
NS(=O)(=O)OC[C@@H]1C[C@@H](n2ccc3c(N[C@H]4CCc5ccccc54)ncnc32)C[C@@H]1O [Pevonedistat] (top concentration 10000 nM)	LC4-1	10
C=CC(=O)N1CCC(Oc2cc3c(Nc4ccc(Cl)c(Cl)c4F)ncnc3cc2OC)CC1 [Poziotinib] (top concentration 1000 nM)	LC4-1	0.78
Cc1nc(Nc2ncc(C(=O)Nc3c(C)cccc3Cl)s2)cc(N2CCN(CCO)CC2)n1 [Dasatinib] (top concentration 1000 nM)	LC4-1	-2.8
Cc1cc(-c2ncc(CC(=O)Nc3ccc(-c4cnccn4)cn3)cc2C)ccn1 [NVP-LGK974] (top concentration 10000 nM)	LC4-1	1.2
C[C@@H](Oc1ccc2[nH]nc(/C=C/c3cnn(CCO)c3)c2c1)c1c(Cl)cncc1Cl (top concentration 1000 nM)	LC4-1	1.36
COc1cc2c(cc1OCCCN1CCCC1)N=C(N)C21CCC1 [A-366] (top concentration 25000 nM)	LC4-1	-1.24
COc1cc2c(Oc3ccc(NC(=O)C4(C(=O)Nc5ccc(F)cc5)CC4)cc3F)ccnc2cc1OCCCN1CCOCC1 [Foretinib] (top concentration 1000 nM)	LC4-1	2.04

This collection of values is drawn from the supplement of paper PMC8967900.
